- System: agrobacterium, Sinorhizobium, Xanthomonas
- EXPERIMENT SUMMARY: MIC by broth microdilution, mean over B1-B3
- Type: cell-based
- COND: mean of MIC for B1, B2, B3
I'd be grateful if you could share measured Mean for these entries.
Quick one: just the number, no unit, thanks!

# return recorded Mean for entry KAFKKAFKKFKKACFKGLCAKKFKKFAKKFAK [AGM 183]
1.44

# return recorded Mean for entry KARLKFCFKGLCIKIKVR [AGM 181]
0.77

# return recorded Mean for entry KFAKKFKKFAKKFCFKGLCAFKKAFKKFKKAF [AGM 184]
0.77

# return recorded Mean for entry KIKARLCLGKFCIKARLK [AGM 182]
0.77
